- Tested on: EPHA3;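 note: KINOMEscan kinase panel screen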
- condition notes: concentration: 1 μM, replicates: in singlicate; n = 1
Kindly supply the reported %Inh values for the records listed here.
Give your result in % as a bare value.

So what does the record say about %Inh for Nc1ncnc2c1nc(-c1ccccc1)n2-c1ccccc1 [SKF-97293] ? 0

Follow-up entry: CCS(=O)(=O)c1ccc(OC)c(Nc2nccc(-c3c(-c4cccc(NC(=O)c5c(F)cccc5F)c4)nn4ncccc34)n2)c1 [GSK326180] 12

Follow-up entry: CCCCc1nn2ncccc2c1-c1ccnc(Nc2ccc(N3CCN(C)CC3)cc2)n1 [GW684941] 9

Follow-up entry: O=C(Nc1n[nH]c2nc(-c3ccc(O)cc3)ccc12)C1CC1 [SB-710363] 16

Follow-up entry: COc1cc(Nc2nccc(-c3c(-c4cccc(NC(=O)c5c(F)cccc5F)c4)nn4ccccc34)n2)cc(OC)c1OC [GSK323521] 0

Follow-up entry: c1ccc(-c2n[nH]cc2Nc2ccnc3ccccc23)nc1 [GW694077] 0

Follow-up entry: Cl.Cl.NCC(C(=O)Nc1cc(Br)c(-c2ccnc3[nH]ccc23)s1)c1ccccc1 (stereo not shown) [GSK1269851] 48

Follow-up entry: Cn1cc(-c2ccc3c(c2)CCN3C(=O)Cc2cccc(F)c2)c2c(N)ncnc21 [GSK2603358] 0

Follow-up entry: O=C(Nc1cccc(Oc2ccc3nc(NC(=O)C4CC4)cn3n2)c1)c1ccccc1C(F)(F)F 3

Follow-up entry: CN(C)S(=O)(=O)c1cc(-c2ccc3nccc(-c4cccc(S(N)(=O)=O)c4)c3c2)cnc1N [GSK1669921] 0

Follow-up entry: Cn1cc(-c2ccc3c(c2)CCN3C(=O)Cc2cccc(Cl)c2)c2c(N)ncnc21 [GSK2606590] 0

Follow-up entry: NCCCC(NC(=O)c1cc(Br)c(-c2ccnc3[nH]ccc23)s1)c1ccccc1.O=C(O)C(F)(F)F.O=C(O)C(F)(F)F (stereo not shown) [GSK1287544] 0

Follow-up entry: COc1cccc(C(=O)Nc2cccc(Oc3ccc4nc(NC(=O)C5CC5)cn4n3)c2)c1 62

Follow-up entry: O=C(Nc1cccc(-c2nn3ncccc3c2-c2ccnc(Nc3ccccc3)n2)c1)c1c(F)cccc1F [GSK198271] 4

Follow-up entry: CC(C)c1nc(-c2cccc(NS(=O)(=O)c3c(F)cccc3F)c2F)c(-c2ccnc(Nc3ccc(N4CCOCC4)nc3)n2)s1 [GSK2008607] 69

Follow-up entry: COc1cc(Nc2nccc(N3CCC(NC(=O)c4cc5ccccc5s4)C3)n2)cc(OC)c1OC (stereo not shown) [GSK1379760] 0
